- TEST: cells
- CONDITION LABEL: Homo sapiens, MV4-11, 48 h
- Description: Growth inhibition of human MV411 cells after 48 hrs by XTT assay
GI50 for assorted molecules
Lab book: enter the figure in nM, no units written.

Look up GI50 for this molecule: `CC1=CC(=O)N(Nc2nc(-c3ccc(N)cc3)nc3scc(-c4ccccc4)c23)C1=O` 2100

What do you get for `CC1=CC(=O)N(Nc2nc(-c3ccc(C)s3)nc3scc(-c4cccs4)c23)C1=O` ? 775

* * *

GI50 for assorted compounds
- TEST: cells
- CONDITION LABEL: Homo sapiens, MV4-11, 48 h

# STRUCTURE SMILES, MEASURED ATTRIBUTE, READING
records = [
    ("COc1sc2nc(-c3cccs3)nc(NN3C(=O)C=C(C)C3=O)c2c1C", "GI50", "100 nM"),
    ("NNc1nc(-c2cccs2)nc2scc(-c3cccs3)c12", "GI50", "> 10000 nM"),
    ("CC1=CC(=O)N(Nc2nc(Cc3ccccc3)nc3scc(-c4cccs4)c23)C1=O", "GI50", "3830 nM"),
]

Please examine the following record next.
Look up GI50 for this compound: `CC1=CC(=O)N(Nc2nc(-c3cccs3)nc3scc(-c4cccs4)c23)C1=O` 320 nM
